# System: Human oral squamous cells carcinoma Cal27
# assay-procedure: growth inhibition of tumor cell Cal27 (SRB staining)
# Type: cell-based
# experimental-conditions: Cal27, 10^−7M, 72 hours, SRB
measure-name: growth inhibition rate (%)
Please give a number only; it is taken to be in %.

The cases that follow already have their growth inhibition rate on record.
[[record]]
molecule = "CCN(CC)C(=O)/C(C)=C\\CC12OC(C)(C)C3CC(C=C4C(=O)c5c(O)c(C/C=C(\\C)CCC=C(C)C)c(O)c(CC=C(C)C)c5OC431)C2=O (stereo not drawn) [diethylamide gambogenic acyl]"
measurement = 23

[[record]]
molecule = "CC(C)=CCC/C(C)=C/Cc1c(O)c(CC=C(C)C)c2c(c1O)C(=O)C1=CC3CC4C(C)(C)OC(C/C=C(/C)C(=O)N5CCCCC5)(C3=O)C14O2 (stereo not drawn) [piperidine gambogenic acid]"
measurement = 0

[[record]]
molecule = "CCOC(=O)/C(C)=C\\CC12OC(C)(C)C3CC(C=C4C(=O)c5c(OCC)c(C/C=C(\\C)CCC=C(C)C)c(O)c(CC=C(C)C)c5OC431)C2=O (stereo not drawn) [6-ethoxy ethyl ester gambogenic acid, 6-ethoxyl gambogenic acid ethyl ester]"
measurement = 0


Inquiry: Which measured growth inhibition rate value corresponds to COC(=O)/C(C)=C\CC12OC(C)(C)C3CC(C=C4C(=O)c5c(OC)c(C/C=C(\C)CCC=C(C)C)c(O)c(CC=C(C)C)c5OC431)C2=O (stereo not drawn) [6-methoxy methyl ester gambogenic acid] ?
Reply text: 0

Inquiry: And what about the molecule CC(C)=CCC/C(C)=C/Cc1c(O)c(CC=C(C)C)c2c(c1O)C(=O)C1=CC3CC4C(C)(C)OC(C/C=C(/C)C(=O)N5CCOCC5)(C3=O)C14O2 (stereo not drawn) [morpholine gambogenic acid] ?
Reply text: 14

Inquiry: Then what about the molecule CCOC(=O)/C(C)=C\CC12OC(C)(C)C3CC(C=C4C(=O)c5c(O)c(C/C=C(\C)CCC=C(C)C)c(O)c(CC=C(C)C)c5OC431)C2=O (stereo not drawn) [ethyl ester gambogenic acid] ?
Reply text: 0
